Where do the numbers come from? From patent EP2027081B1.

- Experimental Target: HEP 2 (Homo sapiens, UniProt P43116)
- Procedure Text: cAMP mediated assay
- Assay type: cell-based
- Stated Conditions: Table 1; value in brackets, footnote (a)
pEC50: −log10 of the molar value.
Test Readout: pEC50

{"columns": ["Compound", "Numeric Result"],
 "data": [
  ["CCCCCC(O)c1ccc([C@H]2CCC(=O)[C@@H]2CCCc2ccc(C(=O)O)s2)cc1 (stereo partly shown) [Entry 23]", 8.52]
]}

---

- Experimental Target: hEP2/Gqs5 (Homo sapiens, UniProt P43116)
- Construct: expressed in transfected cells; host or cells: HEK-293(EBNA)
- Sequence (P43116 whole entry): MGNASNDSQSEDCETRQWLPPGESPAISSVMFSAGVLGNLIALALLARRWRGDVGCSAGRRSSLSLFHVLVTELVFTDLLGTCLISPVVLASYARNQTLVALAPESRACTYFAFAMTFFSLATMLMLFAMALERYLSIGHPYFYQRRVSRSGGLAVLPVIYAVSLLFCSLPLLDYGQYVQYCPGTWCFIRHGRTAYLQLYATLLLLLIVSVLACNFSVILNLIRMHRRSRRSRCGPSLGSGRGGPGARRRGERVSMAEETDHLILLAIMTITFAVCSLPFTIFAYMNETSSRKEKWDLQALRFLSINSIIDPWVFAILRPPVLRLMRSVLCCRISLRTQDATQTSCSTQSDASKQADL
- Procedure Text: FLIPR calcium signal study, HEK-293(EBNA) cells
- Type: cell-based
- Stated Conditions: Table 1; Ca2+ signal; NA means not active; read-out: FUNCTIONAL (Ca2+, EC50, nM) HEP 2
# note: boundary value 3000 nM maps to -1; EC50 below it maps to 1

{"columns": ["Molecule", "Classification"],
 "data": [
  ["CC(C)(C)c1ccc([C@H]2CCC(=O)[C@@H]2C/C=C\\CCCC(=O)O)cc1", 1],
  ["O=C(O)CCCCCC[C@H]1[C@H](Cl)CC[C@@H]1c1ccc(C(O)C2CCCCC2)cc1 (some centres unmarked)", -1],
  ["CCCC1(C(O)c2cccc([C@H]3CCC(=O)[C@@H]3CCCCCCC(=O)O)c2)CCC1 (some centres unmarked)", -1],
  ["O=C(O)CCC/C=C\\C[C@H]1[C@H](Cl)CC[C@@H]1c1ccc(C(O)C2CCCCC2)cc1 (some centres unmarked)", 1],
  ["CCCC1(C(O)c2ccc([C@H]3CCC(=O)[C@@H]3C/C=C\\CCCC(=O)O)cc2)CCC1 (some centres unmarked) [Entry 6]", 1],
  ["CCCC1(C(O)c2cccc([C@H]3CCC(=O)[C@@H]3C/C=C\\CCCC(=O)O)c2)CCC1 (some centres unmarked)", 1],
  ["O=C(O)CCCCCC[C@H]1C(=O)CC[C@@H]1c1ccc(C(O)C2CCCCC2)cc1 (some centres unmarked)", 1],
  ["COC(=O)CCC/C=C\\C[C@H]1C(=O)CC[C@@H]1c1ccc(C(O)C2CCCCC2)cc1 (some centres unmarked)", -1]
]}
